Test: qHTS profiling of the MIPE4 collection as inhibitors of Plasmodium falciparum (HB3) proliferation (AID 743347);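 note: plate controls were DMSO vehicle wells for no effect and artemisinin wells for full effect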
Conditions: P. falciparum HB3 in erythrocytes, SYBR Green DNA, 72 h; at 28.5 µM (top of the series) unless noted
Description: Plasmodium falciparum is a virulent malarial parasite that kills 1-2 million people worldwide each year. […] Because mature erythrocytes lack DNA, only Plasmodium-derived DNA is detected. The SYBR Green viability assay was adapted from a method described previously (Plouffe et al., 2008). […] The following morning, fluorescence intensity at 485(14) nm excitation and 535(25) nm emission wavelengths was measured on an EnVision (Perkin Elmer) plate reader. […]
Known growth, % of control of a selection of compounds

{"smiles representation": "O=P(O)(O)C(O)(Cn1ccnc1)P(=O)(O)O", "growth, % of control, % [at 9.64 µM]": 72.4}
{"smiles representation": "Nc1ccn(C[C@@H](CO)OCP(=O)(O)O)c(=O)n1", "growth, % of control, % [at 9.64 µM]": 81.6}
